Values compiled from the supplement of paper PMC7530171.

system: THP-1; experiment: THP-1 cell loss relative to DMSO control; higher = more host cell loss (toxicity); extreme values may be limits of the assay; conditions: 10 µM; 4 days; infection: M. tuberculosis H37Rv
Respond with label 1 for THP-1 cell loss values of 30% and above, label 0 for values below.

Query :: Confirm if THP-1 cell loss reported for the molecule `O=C(O)c1ccc2c3c1cccc3c(=O)n1c3ccccc3nc21` is 30% or above.
Result :: label 1

Query :: Threshold query (THP-1 cell loss >= 30%) on `COc1cc2nccc(Oc3ccc(NC(=O)NC4CC4)c(Cl)c3)c2cc1C(N)=O`
Result :: label 0

Query :: State whether the measured THP-1 cell loss reaches 30%, counting equality as reaching it, for `O=C1NC(=O)/C(=C/c2ccc3c(c2)OC(F)(F)O3)S1`
Result :: label 0

Query :: Hello, I need to know if `O=C(O)c1ccc(-c2c[nH]c3ncc(-c4ccccc4)cc23)cc1C1CCCC1` has measured THP-1 cell loss not below 30%. Thanks!
Result :: label 0

Query :: Please indicate if the recorded THP-1 cell loss for `CN(C)CCOc1ccc(-c2nc(-c3ccncc3)c(-c3ccc4c(c3)CC/C4=N\O)[nH]2)cc1` meets or exceeds 30%.
Result :: label 1

Query :: Given `COc1cc(N2CCC(N3CCN(C)CC3)CC2)ccc1Nc1ncc(Cl)c(Nc2ccccc2S(=O)(=O)C(C)C)n1` , state whether its THP-1 cell loss is at least 30%.
Result :: label 0

Query :: Is reported THP-1 cell loss greater than or equal to 30% here: `Cc1cnc(Nc2ccc(OCCN3CCCC3)cc2)nc1Nc1cccc(S(=O)(=O)NC(C)(C)C)c1`
Result :: label 1

Query :: In plain terms: is recorded THP-1 cell loss at least 30% for `CC(C)(C)c1nc2c3cc[nH]c(=O)c3c3cc(F)ccc3c2[nH]1` ?
Result :: label 1

Query :: Reported THP-1 cell loss at or above 30%? `COc1cc(OC)c(/C=C/S(=O)(=O)Cc2ccc(OC)c(NCC(=O)O)c2)c(OC)c1`
Result :: label 1
